Target: human KCNK13 (Homo sapiens, UniProt Q9HB14)
Construct: expressed in transfected cells
Sequence (Q9HB14 1-408): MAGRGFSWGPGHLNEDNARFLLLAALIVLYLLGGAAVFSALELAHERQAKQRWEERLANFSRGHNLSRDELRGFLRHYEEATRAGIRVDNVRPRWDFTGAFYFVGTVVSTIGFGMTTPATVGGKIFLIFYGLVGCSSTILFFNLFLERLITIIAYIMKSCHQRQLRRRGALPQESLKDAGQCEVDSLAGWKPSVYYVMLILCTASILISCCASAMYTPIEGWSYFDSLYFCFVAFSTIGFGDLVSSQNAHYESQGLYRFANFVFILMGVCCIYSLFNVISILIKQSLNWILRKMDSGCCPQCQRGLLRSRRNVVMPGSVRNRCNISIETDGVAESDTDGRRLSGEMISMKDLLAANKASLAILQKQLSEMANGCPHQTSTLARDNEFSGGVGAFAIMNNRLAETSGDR
Test: KCNK13 antagonist activity, thallium (Tl+) flux FLIPR assay
Format: cell-based
Conditions: HEK 293 cells stably expressing human KCNK13; Tl+ sensitive dye, FLIPR; compounds 15 minutes prior to thallium sulfate; 10 point half log curves from 10 PM; read-out: hKCNK13 IC50
pIC50: −log10 of the molar value.
measured-property: pIC50

Past entries and their recorded results:
molecule: CSc1ccc(Cn2c(-c3nonc3C)nc3ccccc32)cn1 [Example 181]
pIC50: > 6.30

molecule: Cc1nonc1-c1nc2c(F)cccc2n1Cc1cnc(C#N)cn1 [Example 42]
pIC50: > 6.00

molecule: Nc1nonc1-c1nc2cccc(F)c2n1Cc1ccc(OC(F)(F)F)nc1 [Example 176]
pIC50: > 5.30

molecule: N#Cc1ccc(Cn2c(-c3nonc3N)nc3cccnc32)nn1 [Example 177]
pIC50: > 6.00

Okay, next one:
Qu. What value of pIC50 has been recorded for this entry: Cn1nccc1-c1nc2ccccc2n1Cc1cccnc1 [Example 114]
Ans. > 6.00

----------
Molecular target: human KCNK13 (Homo sapiens)
Construct: expressed in transfected cells
Experiment: KCNK13 antagonist activity, thallium (Tl+) flux FLIPR assay
Assay type: cell-based
Settings: HEK 293 cells stably expressing human KCNK13; Tl+ sensitive dye, FLIPR; compounds 15 minutes prior to thallium sulfate; 10 point half log curves from 10 PM; read-out: hKCNK13 IC50
Method: KCNK13 antagonist activity was determined by measuring changes in intracellular Thallium (Tl^+) concentrations using a Tl^+ sensitive fluorescent dye. The changes in fluorescent signal were monitored by Fluorescent Imaging Plate Reader (FLIPR™) technology available from Molecular Devices, LLC, US. KCNK13 mediated increases in intracellular Tl+concentration were readily detected by addition of a thallium sulfate stimulus. […] The IC50 values were determined from ten point concentration response curves. […]
measured-property: IC50

See these solved cases before continuing.
molecule: Nc1nonc1-c1nc2cccc(F)c2n1Cc1ccncc1 (single isomer, unassigned)
assayed-system: human KCNK13 (Homo sapiens)
recorded-value: < 0.05 µM

molecule: Cc1nonc1-c1nc2c(F)cccc2n1Cc1ccc(C#N)nc1
assayed-system: human KCNK13 (Homo sapiens)
recorded-value: < 0.1 µM

molecule: Nc1nonc1-c1nc2ccc(F)cc2n1Cc1cncnc1 (single isomer, unassigned)
assayed-system: human KCNK13 (Homo sapiens)
recorded-value: < 0.05 µM

Hey, quick one: what's IC50 for each of these?
1. COc1cc(Cn2c(-c3nonc3N)nc3cccc(F)c32)ccn1 (single isomer, unassigned)
2. Cc1nsnc1-c1nc2c(F)cccc2n1Cc1cccnc1 (single isomer, unassigned)
3. Nc1nonc1-c1nc2cc(F)ccc2n1Cc1cccnc1 (single isomer, unassigned)
4. N#Cc1ncc(Cn2c(-c3nonc3N)nc3c(F)ccc(F)c32)cn1
5. Cc1nonc1-c1nc2cccc(N)c2n1Cc1cccnc1

Ans.
["< 0.1 µM", "< 0.05 µM", "< 0.05 µM", "< 0.05 µM", "< 0.5 µM"]

----------
Target: human KCNK13 (Homo sapiens)
Construct: expressed in transfected cells
Test: KCNK13 antagonist activity, thallium (Tl+) flux FLIPR assay
Type: cell-based
Conditions: HEK 293 cells stably expressing human KCNK13; Tl+ sensitive dye, FLIPR; compounds 15 minutes prior to thallium sulfate; 10 point half log curves from 10 PM; read-out: hKCNK13 IC50
pIC50: −log10 of the molar value.
measured-property: pIC50

compound: Cc1nocc1-c1nc2ccccc2n1Cc1cccnc1 [Example 112]
pIC50: > 6.30

Batch request: pIC50 for each of the following compounds.
1. Nc1nonc1-c1nc2cccc(F)c2n1Cc1cncnc1 [Example 3]
2. COc1ccc(Cn2c(-c3nonc3C)nc3cccc(F)c32)cn1 [Example 43]
3. Cc1nonc1-c1nc2cccc(F)c2n1Cc1cnc(C#N)cn1 [Example 41]
4. Cc1nsnc1-c1nc2cccc(F)c2n1Cc1cccnn1 [Example 139]
5. Cc1nonc1-c1nc2c(F)c(F)ccc2n1Cc1cccnn1 (single isomer, unassigned) [Example 171]
6. Nc1nsnc1-c1nc2c(F)cccc2n1Cc1cccnn1 (single isomer, unassigned) [Example 157]
7. CCc1nsnc1-c1nc2ccccc2n1Cc1cccnc1 [Example 105]

Ans.
1: > 7.30; 2: > 6.00; 3: > 7.00; 4: > 7.00; 5: > 6.30; 6: > 6.70; 7: > 6.70

Qu. Would you kindly share the measured pIC50 for COc1ccc(Cn2c(-c3nonc3N)nc3cccc(F)c32)cn1 [Example 10] ?
Ans. > 7.00

----------
Record form. Attribute: pIC50. Fill in for each entry.
Target: human KCNK13 (Homo sapiens, UniProt Q9HB14)
Construct: expressed in transfected cells
Assay: KCNK13 antagonist activity, thallium (Tl+) flux FLIPR assay
Format: cell-based
Settings: HEK 293 cells stably expressing human KCNK13; Tl+ sensitive dye, FLIPR; compounds 15 minutes prior to thallium sulfate; 10 point half log curves from 10 PM; read-out: hKCNK13 IC50
pIC50: −log10 of the molar value.

Would you mind listing pIC50 for each of the following compounds?
1. Nc1nonc1-c1nc2ccccc2n1Cc1cccnc1C(F)(F)F [Example 109]
2. Nc1nonc1-c1nc2c(F)cccc2n1Cc1cncnc1 [Example 131]
3. CCOc1ccc(Cn2c(-c3nonc3C)nc3c(F)cccc32)cn1 [Example 48]
4. Cc1ccc(Cn2c(-c3nonc3C)nc3ccccc32)cn1 [Example 63]
5. C[C@@H](c1cccnc1)n1c(-c2nonc2N)nc2cccc(F)c21 [Example 161]
6. Nc1nonc1-c1nc2ncc(F)cc2n1Cc1cncnc1 [Example 160]

Ans.
["> 6.30", "> 7.00", "> 6.00", "> 6.70", "> 6.00", "> 6.30"]

Provide the reported pIC50 of each entry below, same order.
1. Cc1onc(-c2nc3ccccc3n2Cc2cccnc2)c1C [Example 111]
2. COc1ccc(Cn2c(-c3nonc3N)nc3cccc(F)c32)nn1 (single isomer, unassigned) [Example 152]
3. Nc1nonc1-c1nc2ccccc2n1Cc1ccccn1 [Example 115]
4. Cc1nonc1-c1nc2c(F)cccc2n1Cc1cncnc1 [Example 9]
5. Nc1conc1-c1nc2cccc(F)c2n1Cc1cccnn1 [Example 186]
6. Nc1nonc1-c1nc2cccnc2n1Cc1ccc(C(F)(F)F)nc1 [Example 19]

Ans.
1: > 6.30; 2: > 7.30; 3: > 6.00; 4: > 7.00; 5: > 6.30; 6: > 6.30

Give one value of pIC50 per listed compound.
1. Nc1nonc1-c1nc2ccc(F)c(F)c2n1Cc1ccncc1 [Example 145]
2. Nc1nonc1-c1nc2c(F)cccc2n1Cc1ccc(C(F)(F)F)nn1 (single isomer, unassigned) [Example 167]
3. Cc1nonc1-c1nc2c(F)cc(F)cc2n1Cc1cccnn1 (single isomer, unassigned) [Example 147]
4. CNS(=O)(=O)c1ccc(Cn2c(-c3nonc3C)nc3ccccc32)cn1 [Example 164]
5. c1coc(-c2nc3ccccc3n2Cc2ccncc2)c1 [Example 117]
6. Nc1nonc1-c1nc2cccc(F)c2n1Cc1cnccn1 [Example 32]
7. Nc1nonc1-c1nc2ccccc2n1Cc1ccncc1 [Example 71]

Ans.
> 7.30
> 6.00
> 6.70
> 6.00
> 6.00
> 7.30
> 7.00

----------
Target: human KCNK13 (Homo sapiens, UniProt Q9HB14)
Construct: expressed in transfected cells
Assay: KCNK13 antagonist activity, thallium (Tl+) flux FLIPR assay
Format: cell-based
Conditions: HEK 293 cells stably expressing human KCNK13; Tl+ sensitive dye, FLIPR; compounds 15 minutes prior to thallium sulfate; 10 point half log curves from 10 PM; read-out: hKCNK13 IC50
measured-property: IC50

Example results:
compound: Nc1nonc1-c1nc2ccccc2n1Cc1cncc(C(F)(F)F)c1
recorded-value: < 100 nM
--
compound: Cc1nonc1-c1nc2c(F)cccc2n1Cc1cccnc1 (single isomer, unassigned)
recorded-value: < 50 nM
--
compound: Nc1nonc1-c1nc2cc(F)cc(F)c2n1Cc1ccncc1
recorded-value: < 100 nM
--
compound: Cc1nonc1-c1nc2cccnc2n1Cc1ccc(C(F)(F)F)nc1
recorded-value: < 500 nM
--
compound: Nc1nonc1-c1nc2c(F)cccc2n1Cc1ccnnc1 (single isomer, unassigned)
recorded-value: < 100 nM
--
compound: Cc1snnc1-c1nc2cccc(F)c2n1Cc1cccnc1 (single isomer, unassigned)
recorded-value: < 100 nM

Give me IC50 for each of these compounds, listed below.
1. Nc1nonc1-c1nc2c(F)ccc(F)c2n1Cc1cccnc1
2. Cc1snnc1-c1nc2ccccc2n1Cc1cccnc1
3. Cc1ncc(Cn2c(-c3nonc3C)nc3ccccc32)cn1

Ans.
["< 50 nM", "< 200 nM", "< 200 nM"]
